// values below are reported scatter score 0-4, HPAF-II, 0.111 nM
Assayed System: native human MET on living cells (human, UniProt P08581 25-1390)
Sequence (P08581 25-1390): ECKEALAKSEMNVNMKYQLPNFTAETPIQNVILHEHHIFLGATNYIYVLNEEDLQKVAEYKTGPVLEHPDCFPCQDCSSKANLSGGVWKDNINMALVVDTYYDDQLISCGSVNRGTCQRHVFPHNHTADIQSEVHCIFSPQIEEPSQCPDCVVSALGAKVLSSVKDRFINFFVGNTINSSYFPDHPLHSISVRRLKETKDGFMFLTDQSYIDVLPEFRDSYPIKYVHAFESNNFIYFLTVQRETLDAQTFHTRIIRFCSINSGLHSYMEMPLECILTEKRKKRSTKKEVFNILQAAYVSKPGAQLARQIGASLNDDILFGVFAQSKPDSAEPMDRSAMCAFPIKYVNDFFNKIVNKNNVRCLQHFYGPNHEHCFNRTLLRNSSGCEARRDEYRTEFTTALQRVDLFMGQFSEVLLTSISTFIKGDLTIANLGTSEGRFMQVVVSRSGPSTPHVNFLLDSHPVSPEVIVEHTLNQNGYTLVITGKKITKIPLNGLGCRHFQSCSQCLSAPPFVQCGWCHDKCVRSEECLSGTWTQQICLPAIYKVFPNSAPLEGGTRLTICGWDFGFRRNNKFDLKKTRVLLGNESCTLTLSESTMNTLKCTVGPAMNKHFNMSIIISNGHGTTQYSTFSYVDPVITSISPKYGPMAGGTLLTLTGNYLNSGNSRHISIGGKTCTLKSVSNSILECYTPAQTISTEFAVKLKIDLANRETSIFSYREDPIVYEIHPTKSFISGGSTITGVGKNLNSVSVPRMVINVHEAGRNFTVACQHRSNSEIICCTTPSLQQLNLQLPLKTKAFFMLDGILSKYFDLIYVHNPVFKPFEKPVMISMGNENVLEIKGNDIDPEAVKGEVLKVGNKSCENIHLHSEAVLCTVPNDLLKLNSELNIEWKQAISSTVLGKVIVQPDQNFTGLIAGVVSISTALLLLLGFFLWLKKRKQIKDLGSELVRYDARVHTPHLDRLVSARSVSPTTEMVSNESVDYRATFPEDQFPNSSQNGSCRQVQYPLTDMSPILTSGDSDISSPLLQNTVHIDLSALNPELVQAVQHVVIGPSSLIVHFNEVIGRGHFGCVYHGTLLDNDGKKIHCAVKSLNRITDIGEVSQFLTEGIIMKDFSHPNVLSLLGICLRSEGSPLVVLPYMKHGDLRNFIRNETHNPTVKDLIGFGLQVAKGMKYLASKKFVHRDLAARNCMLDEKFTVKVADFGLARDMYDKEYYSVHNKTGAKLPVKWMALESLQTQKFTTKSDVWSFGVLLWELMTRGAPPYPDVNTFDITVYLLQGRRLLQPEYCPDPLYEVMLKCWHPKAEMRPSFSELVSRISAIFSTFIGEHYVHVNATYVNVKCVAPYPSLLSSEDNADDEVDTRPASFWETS
Test Summary: cell-based or functional assay
Enter your answer as a number in score; do not include the unit.

# annotated cases, reported scatter score 0-4, HPAF-II, 0.111 nM shown
71D4 chimeric llama-human IgG1 mAb (antibody, V domains shown, llama VH on human IgG1 CH1-CH2-CH3, llama VL on human lambda CL) VH: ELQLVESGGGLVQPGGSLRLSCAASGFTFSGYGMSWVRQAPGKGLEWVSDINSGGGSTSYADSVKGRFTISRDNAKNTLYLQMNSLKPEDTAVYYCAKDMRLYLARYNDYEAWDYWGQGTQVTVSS VL: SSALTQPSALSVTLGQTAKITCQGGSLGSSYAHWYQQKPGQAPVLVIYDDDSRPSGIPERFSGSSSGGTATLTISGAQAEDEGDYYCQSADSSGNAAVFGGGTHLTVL: 0
71G3 chimeric llama-human IgG1 mAb (antibody, V domains shown, llama VH on human IgG1 CH1-CH2-CH3, llama VL on human lambda CL) VH: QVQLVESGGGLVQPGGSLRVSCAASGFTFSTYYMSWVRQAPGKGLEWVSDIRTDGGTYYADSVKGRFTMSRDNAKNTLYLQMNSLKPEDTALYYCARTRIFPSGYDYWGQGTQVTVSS VL: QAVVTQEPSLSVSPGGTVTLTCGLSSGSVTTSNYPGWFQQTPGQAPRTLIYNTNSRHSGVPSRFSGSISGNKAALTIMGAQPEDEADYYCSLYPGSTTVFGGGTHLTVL: 3
71C3 chimeric llama-human IgG1 mAb (antibody, V domains shown, llama VH on human IgG1 CH1-CH2-CH3, llama VL on human lambda CL) VH: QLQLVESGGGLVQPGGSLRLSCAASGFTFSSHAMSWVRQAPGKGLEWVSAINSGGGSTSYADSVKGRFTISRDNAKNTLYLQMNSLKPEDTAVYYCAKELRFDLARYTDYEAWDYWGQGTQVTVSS VL: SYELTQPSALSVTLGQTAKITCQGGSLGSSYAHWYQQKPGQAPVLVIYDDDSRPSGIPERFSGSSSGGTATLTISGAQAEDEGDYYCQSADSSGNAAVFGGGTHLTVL: 1
72F8 chimeric llama-human IgG1 mAb (antibody, V domains shown, llama VH on human IgG1 CH1-CH2-CH3, llama VL on human lambda CL) VH: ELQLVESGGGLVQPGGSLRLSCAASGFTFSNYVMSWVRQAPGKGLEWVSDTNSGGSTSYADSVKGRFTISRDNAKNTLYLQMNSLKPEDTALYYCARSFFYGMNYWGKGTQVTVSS VL: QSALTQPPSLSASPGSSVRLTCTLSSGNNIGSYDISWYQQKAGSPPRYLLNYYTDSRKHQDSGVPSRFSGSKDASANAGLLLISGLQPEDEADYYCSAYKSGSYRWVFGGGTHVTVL: 0
71D6 chimeric llama-human IgG1 mAb (antibody, V domains shown, llama VH on human IgG1 CH1-CH2-CH3, llama VL on human lambda CL) VH: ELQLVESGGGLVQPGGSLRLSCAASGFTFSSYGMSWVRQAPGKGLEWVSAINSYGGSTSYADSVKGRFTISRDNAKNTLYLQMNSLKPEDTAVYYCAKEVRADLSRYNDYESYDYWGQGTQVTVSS VL: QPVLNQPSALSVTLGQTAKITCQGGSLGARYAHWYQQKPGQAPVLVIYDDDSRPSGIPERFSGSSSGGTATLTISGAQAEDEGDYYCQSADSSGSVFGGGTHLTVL: 4

Ask | Consider the binder shown here: 71G2 chimeric llama-human IgG1 mAb (antibody, V domains shown, llama VH on human IgG1 CH1-CH2-CH3, llama VL on human lambda CL) VH: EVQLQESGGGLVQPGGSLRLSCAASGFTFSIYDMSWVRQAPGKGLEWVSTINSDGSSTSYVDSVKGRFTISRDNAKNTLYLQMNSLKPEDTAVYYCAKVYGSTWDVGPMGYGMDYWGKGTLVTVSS VL: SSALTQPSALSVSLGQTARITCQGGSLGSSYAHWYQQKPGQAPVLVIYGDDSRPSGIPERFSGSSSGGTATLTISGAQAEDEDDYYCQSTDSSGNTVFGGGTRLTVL What is its recorded scatter score 0-4, HPAF-II, 0.111 nM?
Reply | 4
